The compounds listed here are annotated with their IC50.
Target: NOPr (Homo sapiens)
Sequence (P41146 whole entry): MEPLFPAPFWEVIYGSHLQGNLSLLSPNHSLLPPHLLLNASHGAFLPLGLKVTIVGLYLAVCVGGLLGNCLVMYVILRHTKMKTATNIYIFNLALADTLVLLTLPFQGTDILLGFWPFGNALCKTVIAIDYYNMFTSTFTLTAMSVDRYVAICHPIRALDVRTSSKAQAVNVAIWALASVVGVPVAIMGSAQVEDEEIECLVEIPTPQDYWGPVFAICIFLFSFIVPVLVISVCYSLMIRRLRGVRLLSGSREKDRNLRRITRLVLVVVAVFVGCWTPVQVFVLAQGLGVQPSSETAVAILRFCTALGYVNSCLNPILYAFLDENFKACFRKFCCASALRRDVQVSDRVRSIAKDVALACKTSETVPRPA
Experiment: BRET G-protein activation (GPA) assay, Gαi2, agonist and antagonist mode, Flp-In-NOPr-CHO cells
Assay type: cell-based
Conditions: NOP pIC50 ± SEM, supplementary csv; GPA assay antagonist mode
Lab book: enter the figure in nM, no units written.

See these solved cases before continuing.
[
  {
    "compound": "CC(C)(C)OC(=O)NCCC(=O)N1CCC[C@@H]1C(=O)NCCCN1CCC2(CC1)OCc1ccccc12 [11b]",
    "study_target": "NOPr (Homo sapiens)",
    "unit_string": "nM",
    "assay_value": 7760
  },
  {
    "compound": "CC(C)(C)OC(=O)NCCOc1cccc(CN2CCC[C@@H]2C(=O)NCCCN2CCC3(CC2)OCc2ccccc23)c1 [11g]",
    "study_target": "NOPr (Homo sapiens)",
    "unit_string": "nM",
    "assay_value": 19.5
  },
  {
    "compound": "CC(C)(C)OC(=O)NCCOc1ccc(CN2CCC[C@@H]2C(=O)NCCCN2CCC3(CC2)OCc2ccccc23)cc1 [11h]",
    "study_target": "NOPr (Homo sapiens)",
    "unit_string": "nM",
    "assay_value": 5.5
  },
  {
    "compound": "C[C@H](NC(=O)OC(C)(C)C)C(=O)N1CCC[C@@H]1C(=O)NCCCN1CCC2(CC1)OCc1ccccc12 [11a]",
    "study_target": "NOPr (Homo sapiens)",
    "unit_string": "nM",
    "assay_value": 11700
  }
]

Now look at this entry.
Value (IC50, NOPr (Homo sapiens)) for record CN1/C(=C/C=C/C=C/C2=[N+](CCCCCC(=O)NCCOc3cccc(CN4CCC[C@@H]4C(=O)NCCCN4CCC5(CC4)OCc4ccccc45)c3)c3ccc(S(=O)(=O)[O-])cc3C2(C)C)C(C)(C)c2cc(S(=O)(=O)[O-])ccc21.[K+] [13g] = 110
